ASSAY SYSTEM: Transcription factor E2F1 (Homo sapiens) (UniProt Q01094)
Sequence (Q01094 whole entry, looked up): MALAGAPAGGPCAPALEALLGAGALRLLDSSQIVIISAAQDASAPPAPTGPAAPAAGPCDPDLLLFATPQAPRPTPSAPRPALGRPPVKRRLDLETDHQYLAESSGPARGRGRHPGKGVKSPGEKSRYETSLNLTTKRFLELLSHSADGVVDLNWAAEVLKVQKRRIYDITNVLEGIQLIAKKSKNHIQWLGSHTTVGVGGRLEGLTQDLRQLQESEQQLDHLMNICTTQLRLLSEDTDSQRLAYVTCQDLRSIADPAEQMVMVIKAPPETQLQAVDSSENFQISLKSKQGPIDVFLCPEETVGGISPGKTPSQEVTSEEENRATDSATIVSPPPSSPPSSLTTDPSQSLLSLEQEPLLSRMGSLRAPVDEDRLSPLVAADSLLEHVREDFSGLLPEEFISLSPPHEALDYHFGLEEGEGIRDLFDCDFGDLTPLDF
ASSAY DETAILS: ATG_E2F_CIS: Attagene CIS-FACTORIAL HepG2 Assay for human E2F Transcription Factor 1 (AID 2282935)
COND: HepG2 Attagene cis-reporter, E2F reporter RNA transcripts; actives raise or lower the signal
Activity calls are given as the source filed them. How the source made its calls: active means hit-call score of the fitted dose curve at least 0.9, where 1 is the maximum; inactive means score below 0.9.
Field 'call' accepts active, inactive

Each compound tested received a call. Report the one for COC(=O)c1ccc(CNS(C)(=O)=O)cc1S(=O)(=O)NC(=O)Nc1nc(OC)cc(OC)n1 .
inactive

Each compound tested received a call. Report the one for O=C(O)c1ccccc1 .
inactive

Each compound tested received a call. Report the one for C#CCOC(=O)[C@@H](C)Oc1ccc(Oc2ncc(Cl)cc2F)cc1 .
inactive

Each compound tested received a call. Report the one for CCC(O)=C1C(=O)CC(C(=O)O)CC1=O (stereo not given) .
inactive

Each compound tested received a call. Report the one for CCSC(=O)N(CC(C)C)CC(C)C .
inactive

Each compound tested received a call. Report the one for CCOC(=O)[C@H](C)Oc1ccc(Oc2nc3ccc(Cl)cc3o2)cc1 .
inactive

Each compound tested received a call. Report the one for O=C(c1ccc(O)cc1O)c1ccc(O)cc1O .
inactive

Each compound tested received a call. Report the one for O=C(Nc1ccc([N+](=O)[O-])cc1Cl)c1cc(Cl)ccc1O .
inactive

Each compound tested received a call. Report the one for CCNc1nc(N)nc(Cl)n1 .
inactive

Each compound tested received a call. Report the one for COC(=O)CSc1cc(N=c2sc(=O)n3n2CCCC3)c(F)cc1Cl .
inactive

Each compound tested received a call. Report the one for c1ccc2[nH]c(-c3cscn3)nc2c1 .
inactive

Each compound tested received a call. Report the one for S=C([S-])NCCNC(=S)[S-].[Mn+2] .
inactive

Each compound tested received a call. Report the one for c1ccc(Nc2ccccc2)cc1 .
inactive

Each compound tested received a call. Report the one for COC(=O)c1cccc(C)c1S(=O)(=O)NC(=O)Nc1nc(OCC(F)(F)F)nc(N(C)C)n1 .
inactive

Each compound tested received a call. Report the one for CCCN(CCC)c1c([N+](=O)[O-])cc(C(F)(F)F)c(N)c1[N+](=O)[O-] .
inactive

Each compound tested received a call. Report the one for CC(C)(c1ccc(O)cc1)c1ccc(O)cc1 .
inactive

Each compound tested received a call. Report the one for CCCCOCCOCCOCc1cc2c(cc1CCC)OCO2 .
active

Each compound tested received a call. Report the one for COC(=O)c1ccccc1C(=O)O .
inactive

Each compound tested received a call. Report the one for CCCN(CCC)C(=O)SCC .
inactive

Each compound tested received a call. Report the one for CCOC(=O)c1ccc(O)cc1 .
inactive

Each compound tested received a call. Report the one for C[C@]12CC[C@@H]3c4ccc(O)cc4C[C@@H](CCCCCCCCCS(=O)CCCC(F)(F)C(F)(F)F)[C@H]3[C@@H]1CC[C@@H]2O (stereo not given in full) .
inactive

Each compound tested received a call. Report the one for C=CCOC(Cn1ccnc1)c1ccc(Cl)cc1Cl (stereo not given) .
inactive

Each compound tested received a call. Report the one for COc1nc(C)nc(NC(=O)NS(=O)(=O)c2ccccc2OCCCl)n1 .
inactive

Each compound tested received a call. Report the one for CCN(Cc1c(F)cccc1Cl)c1c([N+](=O)[O-])cc(C(F)(F)F)cc1[N+](=O)[O-] .
inactive

Each compound tested received a call. Report the one for CCN(CC)C(=O)c1cccc(C)c1 .
inactive
